System: SR leukemia
Assay: NCI-60 one-dose screen, 48 h
Conditions: 10 µM unless noted
Description: Growth inhibition of the SR human tumor cell line is measured as a screen for anti-cancer activity. Cells are grown in 96 well plates and exposed to the test compound for 48 hours. Compounds are tested at a single concentration, which is 10^-5 M for most compounds. The reported endpoint is percent growth (GI% or GIPRCNT), where numbers from 0 - 100% represent growth inhibition, and numbers from -100% - 0 represent cell death. For example, a value of 40 represents 60% growth inhibition. […]
This is part of a sample that, as a whole, favours compounds with a hit. Of some 83,000 tested, about 20% had one in any assay. Active and inactive are the calls of the source. Rule for the calls: active = growth percent below 10; inactive = the rest.
Just give me one of these, please: label 1 (active), label 0 (inactive)

Some solved cases for reference:
[
  {
    "COMPOUND": "COc1ccc(/C=N/NC(=O)c2[nH]c3ccc(Br)cc3c2-c2ccccc2)o1",
    "ASSIGNED CLASS": "label 0"
  },
  {
    "COMPOUND": "C=C1CC[C@H]2[C@@](C)(CCC3OC(c4ccc(OCc5cn(C6CC(OC(C)=O)C(OC(C)=O)C(COC(C)=O)O6)nn5)cc4)OC[C@]32C)[C@@H]1/C=C/C1=CCOC1=O (some centres undefined)",
    "ASSIGNED CLASS": "label 0"
  },
  {
    "COMPOUND": "CNC(=O)c1cc(-c2ccc(NC(=O)Nc3ccc(N4CCN(C)CC4)c(C(F)(F)F)c3)cc2)nc2cccnc12",
    "ASSIGNED CLASS": "label 1"
  },
  {
    "COMPOUND": "OC1CCc2c(-c3ccc4ncnc(N5CCc6cc(F)c(Cl)cc65)c4c3)cncc21 (centres undefined)",
    "ASSIGNED CLASS": "label 0"
  },
  {
    "COMPOUND": "CCOc1ccc([C@H]2C(C(=O)c3ccc(Cl)cc3)C3(N[C@@H]2c2ccccc2)C(=O)Nc2ccc(Br)cc23)cc1 (some centres undefined)",
    "ASSIGNED CLASS": "label 1"
  }
]

Asked: In this assay, the call recorded for COc1cc(N=Cc2sc(Nc3nccs3)nc2O)cc(OC)c1OC was what?
Given back: label 0

Asked: In this assay, the call recorded for COc1cc(/C=C/C(=O)c2cc(OC)c(OC)c(OC)c2)ccc1OCc1ccc(F)cc1 was what?
Given back: label 0

Asked: In this assay, the call recorded for Cn1cc(-c2cc(N)n3nc(-c4cn(C)c5ccc(F)cc45)cc3n2)c2cc(F)ccc21 was what?
Given back: label 1

Asked: In this assay, the call recorded for CN(C)CCCNc1c2ccccc2nc2c1oc1ccc(Cl)cc12 was what?
Given back: label 1

Asked: In this assay, the call recorded for CCN1C(=S)N(CC)C2C1N=C(SC)N2/N=C/C=C/c1ccccc1[N+](=O)[O-] (centres undefined) was what?
Given back: label 0

Asked: In this assay, the call recorded for CCOC(=O)c1csc(NC(=O)CSc2nc3sc4c(c3c(=O)n2-c2ccc(Cl)cc2)CCCC4)n1 was what?
Given back: label 0

Asked: In this assay, the call recorded for [Cl][Ru].c1ccc(-c2cc(-c3ccccn3)nc(-c3ccccn3)c2)cc1.c1ccc(-c2ccnc3c2ccc2c(-c4ccccc4)ccnc23)cc1 was what?
Given back: label 1

Asked: In this assay, the call recorded for Clc1ccc(-c2cn3cc(Cc4ccc(Cl)c(Cl)c4)sc3n2)cc1 was what?
Given back: label 0

Asked: In this assay, the call recorded for CC(C)Sc1nc(Nc2ccc(S(N)(=O)=O)cc2)c(C#N)c(-c2ccc(F)cc2)n1 was what?
Given back: label 1
